clearance reference
Experiment: Plasma clearance in iv or po dosed Sprague-Dawley rat
Type: ADME, organism-based
Please state the figure in mL/min/kg; there is no need to write the unit.

CHEMICAL_STRUCTURE	QUANTITATIVE_READOUT
O=C1[C@@H](NS(=O)(=O)c2ccc3cc(Cl)ccc3c2)CCN1c1ccc2c(c1)CCCNC2	6.8
CN1CCc2cc(N3CC[C@H](NS(=O)(=O)/C=C/c4ccc(Cl)s4)C3=O)ccc2C1	26
O=C1[C@@H](NS(=O)(=O)/C=C/c2ccc(Cl)s2)CCN1c1cc2c(cc1F)CNCC2	1.4
CN[C@@H](C)c1ccc(N2CC[C@H](NS(=O)(=O)c3ccc4cc(Cl)ccc4c3)C2=O)c(F)c1	1.6
O=C1[C@@H](NS(=O)(=O)c2ccc3c(Cl)c[nH]c3c2)CCN1c1ccc2c(c1)CCNC2	7.7

Look at this compound and give its reported clearance. `O=C1[C@@H](NS(=O)(=O)c2ccc3cc(Cl)ccc3c2)CCN1c1cc2c(cc1F)CNCC2` 1.7

Next: `O=C1[C@@H](NS(=O)(=O)/C=C/c2ccc(Cl)s2)CCN1c1ccc2c(c1)CCNC2` 3

Now consider `O=C1[C@@H](NS(=O)(=O)c2ccc3c(Cl)c[nH]c3c2)CCN1c1cc2c(cc1F)CNCC2` and answer again. 1.3

Check `O=C1[C@@H](NS(=O)(=O)/C=C/c2ccc(Cl)s2)CCN1c1ccc2c(c1F)CCNC2` too. 3

Also `O=C1[C@@H](NS(=O)(=O)c2ccc3cc(Cl)ccc3c2)CCN1c1ccc2c(c1)CCNC2` , if possible. 4
